- assay_target: T1, PUF4 RNA-binding domain (Saccharomyces cerevisiae, UniProt P25339 537-888)
- T1 sequence: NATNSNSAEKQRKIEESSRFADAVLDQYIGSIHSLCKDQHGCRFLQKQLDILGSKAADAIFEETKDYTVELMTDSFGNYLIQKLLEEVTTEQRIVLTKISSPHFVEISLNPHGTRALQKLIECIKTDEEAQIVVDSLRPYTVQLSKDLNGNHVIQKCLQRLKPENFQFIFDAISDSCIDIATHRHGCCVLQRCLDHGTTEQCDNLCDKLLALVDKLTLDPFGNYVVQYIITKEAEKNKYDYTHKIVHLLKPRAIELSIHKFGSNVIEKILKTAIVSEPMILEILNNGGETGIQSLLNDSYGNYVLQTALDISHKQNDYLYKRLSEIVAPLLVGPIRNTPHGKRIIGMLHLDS
- test_method_notes: Mg; RNA-MaP; 20 mM Na-HEPES pH 7.4, 30 mM KOAc, 0.75 mM MgCl2, 0.1% Tween-20, 5% glycerol, 0.1 mg/mL BSA, 2 mM DTT; 25 C; 0.0125-409.6 nM protein
- experimental_conditions: tags: N-His6-TEV cleaved; C-SNAP kept, Cy3B-labelled; label: tethered on chip by stalled RNA polymerase
result_type: pKd
By convention, pKd is the negative base-10 log of a molar concentration.

Task: Using the record for UCUCUUUGUAUUUUUGUCUCUU (ssRNA) [Ib_S1_P5E.1_K5.1_C5.1_H5.1_A5.1_[A7T]_F5.1_[A10G]_T5.1] , report its pKd.
Result: 7.86

Task: For the binder shown here, UCUCUUUAUGUAUAUAUGUCUCUU (ssRNA) [Id_ii_S1_P3E.2_K3.1_C3.2_[C-2T]_[T-1A]_H3.1_A3.1_F3.1_T3.2_[A10G]] , give the reported pKd.
Result: 8.02

Task: Which value of pKd has been reported for Ib_S2_P5E.1_K5.1_C5.1_H5.1_[G2C]_A5.1_F5.1_[T9A]_T5.1 (ssRNA) RNA: UUUGAUUAAUAUGAUAUCGUUCUUUCUUCUAUUAUAAUUCUUUCUCGAUAUCAUAUUAAUCUUU in the records?
Result: 5.77
